All figures here come from patent US10869931B2.

system: mouse spleen lymphocytes; experiment: ConA-stimulated mouse spleen lymphocyte proliferation (MTT); type: cell-based; settings: 160 μg/mL, ConA 5 μg/mL, 48 h
Where no end group is shown, it is not given here.
measurement.type: A570 nm/A630 nm
# answer = number (no unit)

Record excerpt, results attached:
>  <substance>
mPEG2-NHS40k-Arg-Gly-Ala-Asp-Arg-Ala-Gly-Gly-Gly-Gly-Arg-Gly-Asp ({mPEG2‑NHS 40 kDa}-RGADRAGGGGRGD) [mPEG2-NHS40k-HM-1]

>  <A570 nm/A630 nm>
0.4827

$$$$
>  <substance>
mPEG-ALD40k-Arg-Gly-Ala-Asp-Arg-Ala-Gly-Gly-Gly-Gly-Arg-Gly-Asp ({mPEG‑ALD 40 kDa}-RGADRAGGGGRGD) [mPEG-ALD40k-HM-1]

>  <A570 nm/A630 nm>
0.4770

$$$$
>  <substance>
mPEG-SC40k-Arg-Gly-Ala-Asp-Arg-Ala-Gly-Gly-Gly-Gly-Arg-Gly-Asp ({mPEG‑SC 40 kDa}-RGADRAGGGGRGD) [mPEG-SC40k-HM-1]

>  <A570 nm/A630 nm>
0.4794

$$$$

Q. For mPEG-bALD40k-Arg-Gly-Ala-Asp-Arg-Ala-Gly-Gly-Gly-Gly-Arg-Gly-Asp ({mPEG‑bALD 40 kDa}-RGADRAGGGGRGD) [mPEG-bALD40k-HM-1] , write its A570 nm/A630 nm.
A. 0.4848
